Provide the reported Content (mg/g) of ingredient in Salvia miltiorrhiza extract of each item.
# ASSAY_INFO: stability (content) of ingredients included in the Salvia miltiorrhiza extract on storage
# Format: physicochemical
# STUDY_CONDITIONS: extract made with 100% EtOH, before storage
Kindly answer with a numeric value in mg/g, unit omitted.

The molecule identified as "Cc1coc2c1C(=O)c1ccc3c(C)cccc3c1C2=O" registered its Content (mg/g) of ingredient in Salvia miltiorrhiza extract at 12.22

The molecule identified as "O=C(/C=C/c1ccc(O)c2c1[C@H](C(=O)O[C@H](Cc1ccc(O)c(O)c1)C(=O)O)[C@@H](c1ccc(O)c(O)c1)O2)O[C@H](Cc1ccc(O)c(O)c1)C(=O)O" registered its Content (mg/g) of ingredient in Salvia miltiorrhiza extract at 20.3

The molecule identified as "O=C(O)[C@H](O)Cc1ccc(O)c(O)c1" registered its Content (mg/g) of ingredient in Salvia miltiorrhiza extract at 18.32

The molecule identified as "Cc1coc2c1C(=O)C(=O)c1c-2ccc2c1CCCC2(C)C" registered its Content (mg/g) of ingredient in Salvia miltiorrhiza extract at 8.33
